Experimental system: AOS (Parthenium argentatum, UniProt Q40778)
Sequence (Q40778 whole entry): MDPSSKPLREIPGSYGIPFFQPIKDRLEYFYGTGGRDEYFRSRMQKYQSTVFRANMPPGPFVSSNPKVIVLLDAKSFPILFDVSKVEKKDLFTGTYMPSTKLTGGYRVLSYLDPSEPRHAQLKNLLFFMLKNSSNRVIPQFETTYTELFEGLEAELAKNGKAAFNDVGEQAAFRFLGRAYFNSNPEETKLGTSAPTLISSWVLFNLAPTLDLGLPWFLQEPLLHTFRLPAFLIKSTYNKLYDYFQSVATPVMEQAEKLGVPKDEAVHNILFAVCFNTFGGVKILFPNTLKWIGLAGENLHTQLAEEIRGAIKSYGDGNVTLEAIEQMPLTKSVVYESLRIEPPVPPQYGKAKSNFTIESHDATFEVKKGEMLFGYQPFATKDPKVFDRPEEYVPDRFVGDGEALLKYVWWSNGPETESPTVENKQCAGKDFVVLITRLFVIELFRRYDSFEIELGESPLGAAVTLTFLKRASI
Test summary: Fluorescence spectroscopy of rubber particles incubated with AOS inhibitors
Assay type: biochemical, guayule
Design: from tissue; host or cells: washed rubber particles of guayule, carrying the endogenous AOS
Assay setup: native rubber particles incubated with 1 mM inhibitor

Compound | Experimental system | fluorescence of rubber particles
OCc1ccccc1O[C@@H]1O[C@H](CO)[C@@H](O)[C@H](O)[C@H]1O [SAL, salicin] | AOS (Parthenium argentatum, UniProt Q40778) | did not fluoresce
O=C(O)c1cc(S(=O)(=O)O)ccc1O [5SSA, 5-sulfosalicylic acid] | AOS (Parthenium argentatum, UniProt Q40778) | did not fluoresce
